measurement_protocol: cytotoxicity in HPDE-C7 cells, cell-based, fluorescence, HTS (AID 430);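 further: cells exposed to compound for 48 hours before viability readout; 0% = vehicle and 100% = reference cytotoxic drug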
condition_description: HPDE-C7 pancreatic duct cells viability, at 10 µM
Hit rate of the full screen: of about 63,000 compounds, about 1,100 (1.7%) were called active. No stated cut-off is given here; in the data, active means cytotoxicity above about 50%; inactive means the rest. The sample as a whole holds a higher share of actives than the screen did. Potency and affinity values are given separately.
Possible outcomes: yes (1) (active), no (0) (inactive)

In [3]: df
Out[3]:
                                   compound  category_label
0  C/C=C/COC(=O)c1[nH]c2c(c1C)C(=O)CC(c1ccco1)C2 (stereo not given)         yes (1)
1  COc1ccc(C2=NOC(C(=O)NCc3ccc(F)cc3)C2)cc1OC (stereo not given)         yes (1)
2  O=C(Nc1cnn(Cc2ccccc2)c1)c1cc2nc(-c3ccco3)cc(C(F)(F)F)n2n1          no (0)
3  C/C=C/COC(=O)c1[nH]c2c(c1C)C(=O)CC(c1ccc(N(C)C)cc1)C2 (stereo not given)          no (0)
4  Cc1ccccc1Cn1cc(NC(=O)c2cc3nc(-c4ccco4)cc(C(F)(F)F)n3n2)cn1          no (0)
5  O=C(Nc1cnn(Cc2ccc(F)cc2)c1)c1cc2nc(-c3ccco3)cc(C(F)(F)F)n2n1          no (0)
6  Cc1ccccc1Cn1ccc(NC(=O)c2cnn3c(C(F)(F)F)cc(-c4ccco4)nc23)n1          no (0)
7  Cc1ccccc1Cn1ccc(NC(=O)c2cc3nc(-c4ccco4)cc(C(F)(F)F)n3n2)n1         yes (1)
8        CCNC(=O)N1c2ccc(OC)cc2C(C)=CC1(C)C          no (0)
9  COc1ccc(NC(=O)C2CC(c3ccc(OC)c(OC)c3)=NO2)cc1OC (stereo not given)          no (0)

* * *

measurement_protocol: cytotoxicity in HPDE-C7 cells, cell-based, fluorescence, HTS (AID 430);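 further: cells exposed to compound for 48 hours before viability readout; 0% = vehicle and 100% = reference cytotoxic drug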
condition_description: HPDE-C7 pancreatic duct cells viability, at 10 µM, active compounds read high
About 1,100 (1.7%) of roughly 63,000 compounds were called active. Shown is part of a subset that was picked to be rich in actives. Results with a measured potency or affinity are listed apart.
Item-by-item account of cytotoxicity
result_type: cytotoxicity (%)

>>> print(df.to_string())
                                    compound  units  numeric_value
 0  Cc1oc(-c2ccc(Cl)cc2)nc1CN1CCC(C(=O)N2CCN(Cc3ccccc3)CC2)CC1      %            9.6
 1  CCOC(=O)c1[nH]c2ccc(F)cc2c1NC(=O)C(C)N1CCc2cc(OC)c(OC)cc2C1 (configuration not stated)      %           58.6
 2               Cc1nnc2n1N=CC=C(c1ccccc1)S2      %           57.5
 3  CCCn1nc(NC(=O)c2cccs2)c2cc3cc(OC)ccc3nc21      %           -7.4
 4    COc1ccc(OC)c(S(=O)(=O)n2nnc3ccccc32)c1      %             -7
 5   CCOC(=O)c1[nH]c2ccccc2c1NC(=O)CN1CCCCC1      %           -4.1
 6  Cc1oc(-c2cccc(Cl)c2)nc1CN1CCC(C(=O)N2CCN(c3ccccn3)CC2)CC1      %           15.5
 7  CCc1ccc(-c2nc(CN3CCC(C(=O)NCCN(CC)c4ccccc4)CC3)c(C)o2)cc1      %           47.3
 8               Cc1nnc2n1N=CC=C(C(C)(C)C)S2      %           -5.2
 9  Cc1cccc(S(=O)(=O)c2c(N)n(/N=C/c3cccnc3)c3nc4ccccc4nc23)c1      %           28.2
10  Nc1c(S(=O)(=O)c2ccccc2)c2nc3ccccc3nc2n1/N=C/c1ccco1      %             69
11  COC(=O)c1ccc(NC(=O)CCN2CCN(c3ccccc3)CC2)cc1      %           37.6
12  COc1ccc2nc3c(cc2c1)c(NC(=O)c1cccs1)nn3CC(C)C      %           50.8
13  CCOC(=O)c1[nH]c2ccc(F)cc2c1NC(=O)CN1CCN(C/C=C/c2ccccc2)CC1      %           64.9
14                        COn1cnnc1-c1ccccc1      %           -8.8
15  CCc1ccc(-c2nc(CN3CCCC(C(=O)NCCc4ccc(OC)c(OC)c4)C3)c(C)o2)cc1 (configuration not stated)      %              7
16  COc1cc(S(=O)(=O)n2nnc3ccccc32)c(OC)cc1Cl      %           60.8
17  Cc1ccc(NC(=O)Nc2ccc3c(c2)N(C)C(=O)CS3)nc1      %           -4.8
18  Cc1oc(-c2cccc(Cl)c2)nc1CN1CCC(C(=O)N2CCN(c3ccccc3F)CC2)CC1      %           54.5
19  CCN1CCN(C(=O)C2CCN(Cc3nc(-c4cccc(Cl)c4)oc3C)CC2)CC1      %            9.2
20  CCC(c1nnnn1Cc1cccs1)N1CCN(c2nc3ccccc3s2)CC1 (configuration not stated)      %           -1.9
21  CCc1ccc(-c2nc(CN3CCC(C(=O)N4CCN(c5ccccn5)CC4)CC3)c(C)o2)cc1      %           26.2

* * *

measurement_protocol: cytotoxicity in HPDE-C7 cells, cell-based, fluorescence, HTS (AID 430);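 further: cells exposed to compound for 48 hours before viability readout; 0% = vehicle and 100% = reference cytotoxic drug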
condition_description: HPDE-C7 pancreatic duct cells viability, at 10 µM, active compounds read high
About 1,100 (1.7%) of roughly 63,000 compounds were called active. Shown is part of a subset that was picked to be rich in actives. Measured potencies and affinities stand elsewhere.
result_type: cytotoxicity (%)

In [3]: df
Out[3]:
                                    compound  numeric_value
 0  CCOC(=O)c1cn(CC)c2cc(N3CCCCC3)c(F)cc2c1=O            3.7
 1  COc1ccc(OC)c(S(=O)(=O)n2nc(-c3ccccc3)cc2N)c1          -13.7
 2  Cc1ccc(S(=O)(=O)Nc2ccc(NC(=O)CN3CCCCC3)cc2)cc1             -3
 3  O=C(Cn1c(=O)[nH]c2ccsc2c1=O)N1CCN(c2ccc(F)cc2)CC1            9.5
 4  COc1ccccc1S(=O)(=O)Cc1ccc(C(=O)NCCN(C)C)o1              8
 5               CCCN(CC1CC1)C(=O)Nc1ccccc1C           -9.7
 6  O=C(O)CCc1ccc(-c2cccs2)n1NC(=O)c1ccc(Cl)cc1            0.6
 7  CC(=O)N1CCN(C2c3cccc4cccc(c34)C2NS(=O)(=O)c2ccccc2)CC1 (stereo unspecified)          -18.7
 8  COC(=O)CN1C(=O)C(O)(CC(=O)c2ccc(C)cc2)c2ccccc21 (stereo unspecified)          -28.9
 9  CSc1nnc2c(n1)OC(C1CC=C(C)CC1)Nc1ccccc1-2 (stereo unspecified)            2.9
10  C=CCN(CC=C)c1nc2ccccc2nc1C(C#N)C(=O)OCCOC (stereo unspecified)            1.9

* * *

Item-by-item account of cytotoxicity
measurement_protocol: cytotoxicity in HPDE-C7 cells, cell-based, fluorescence, HTS (AID 430);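 further: cells exposed to compound for 48 hours before viability readout; 0% = vehicle and 100% = reference cytotoxic drug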
condition_description: HPDE-C7 pancreatic duct cells viability, at 10 µM, active compounds read high
The campaign covered roughly 63,000 compounds. About 1,100 (1.7%) were called active. The entries come from a sample that favours actives as a whole. Entries with a potency or affinity are not part of this list.
result_type: cytotoxicity (%)

                                    compound   result_type  units  numeric_value
 0   CCCOc1ccc(C(=O)NCCC(=O)NCCCC(=O)OCC)cc1  cytotoxicity      %            1.7
 1               N#CCC(=O)N1CCn2c1nc1ccccc12  cytotoxicity      %          -11.2
 2  C=CCn1c(SCC(=O)N2CCOCC2)nc2sc3c(c2c1=O)CCCC3  cytotoxicity      %           -1.2
 3  O=C(Nc1ccc(Cl)cc1)Nc1ccccc1C(=O)NCc1ccco1  cytotoxicity      %            8.1
 4         COC(=O)c1ccc(Oc2cc(C)nc(SC)n2)cc1  cytotoxicity      %           50.6
 5  COc1ccc(-n2ncc3c(N4CCN(c5cc(C)ccc5C)CC4)ncnc32)cc1  cytotoxicity      %            1.5
 6        COc1ccc(OC)c(-c2nc(C)sc2CC(=O)O)c1  cytotoxicity      %           -6.4
 7  Cn1c(NCC2CCCO2)nc2c1c(=O)n(Cc1ccccc1)c(=O)n2C (stereo not drawn)  cytotoxicity      %            4.9
 8  Cc1cccc(N(C(=O)Cn2nnc3ccccc32)C(C(=O)NCc2ccco2)c2ccncc2)c1 (stereo not drawn)  cytotoxicity      %            5.1
 9  CCOCCCN(Cc1cc2cc(C)cc(C)c2[nH]c1=O)C(=O)N(CC)CC  cytotoxicity      %           -8.9
10  C(=C\c1ccccc1)/CSc1nnc(-c2cnccn2)n1Cc1ccco1  cytotoxicity      %          -10.9
11  COc1ccc(CNC(=O)CSc2nnc(-c3ccc(NC(C)=O)cc3)n2C)cc1  cytotoxicity      %           -3.1
12  CCS(=O)(=O)C(=C(Nc1ccc(OC)cc1)Nc1ccc(OC)cc1)S(=O)(=O)CC  cytotoxicity      %          -21.8
13                  Cc1cc(C)n2nc(SCC#N)nc2n1  cytotoxicity      %            1.5
14  COC(=O)C1=C(C)NC(C)=C(C(=O)OC)C1c1cc2cc(C)ccc2[nH]c1=O  cytotoxicity      %            2.9
15  O=C(c1ccco1)N1CCN(c2ncnc3c2cnn3-c2ccccc2)CC1  cytotoxicity      %           -6.3
16  O=C(COc1ccccc1)N1CCN(c2ncnc3c2cnn3-c2ccccc2)CC1  cytotoxicity      %           -0.4
17        CCOC(=O)c1ccc(Oc2cc(C)nc(SC)n2)cc1  cytotoxicity      %           50.9
18   COC(=O)c1cc(Cc2ccc(N)c(C(=O)OC)c2)ccc1N  cytotoxicity      %            1.9
19  COC(=O)CSc1nnc(CSc2nc(C)cc(C)n2)n1Cc1ccco1  cytotoxicity      %           -2.1
20            O=C(NCCSCc1ccco1)Nc1ccc(Cl)cc1  cytotoxicity      %           -8.4
21     Cc1ccc(-n2ncc3c(N4CCCC4)ncnc32)c(C)c1  cytotoxicity      %           -2.3
22  Cc1nn(CCCNC(=O)C2CCCO2)cc1Br (stereo not drawn)  cytotoxicity      %           -8.3
